Catalogue of pKd readings, one per entry.
# targetDesc: T1, Mexico/1977 (BC287/97)* (serotype IV EDIII) (Dengue virus 4)
# T1 construct: isolated EDIII protein; also called EDIII of DENV-4 Mexico/1997 (BC287/97); DENV-4 BC2
# protocolDescription: Kd table, method not stated; Ag DENV-4 BC2
pKd: −log10 of the molar value.
observable: pKd

>>> result("antibody C88 (antibody, V domains shown) VH: QVQLVQSGAEVKKPGASVKVSCKASGFNIKDVYMSWVRQAPEQGLEWMGRIDPENGDTKYDPKLQGRVTMTADTSTNTAYMELRSLRSDDTAVYYCARGWEGFAYWGQGTLVTVSS VL: DIVMTQSPASLAVSLGERATISCRASENVDKYGNSFMHWYQQKPGQPPKLLIYRASELQWGVPDRFSGSGSGTDFTLTISSLQAEDVAVYYCQRSNEVPWTFGQGTKLEIK")
7.97
>>> result("mouse mAb 4E11 (antibody, V domains shown, also called antibody 4E11) VH: VKLLEQSGAELVKPGASVRLSCTASGFNIKDTYMSWVKQRPEQGLEWIGRIDPANGDTKYDPKFQGKATITADTSSNTAYLHLSSLTSGDTAVYYCSRGWEGFAYWGQGTLVTVSA VL: ELVMTQTPASLAVSLGQRATISCRASENVDRYGNSFMHWYQQKAGQPPKLLIYRASNLESGIPARFSGSGSRTDFTLTINPVEADDVATYFCQRSNEVPWTFGGGTKLEIK")
4.39
>>> result("antibody A11 (antibody, V domains shown, also called mAb A11; 4E5A) VH: VKLLEQSGAELVKPGASVRLSCTASGFNIKDTYMSWVKQRPEQGLEWIGRIDPENGDTKYDPKFQGKATITADTSSNTAYLHLSSLTSGDTAVYYCSRGWEGFAYWGQGTLVTVSA VL: ELVMTQTPASLAVSLGQRATISCRASENVDKYGNSFMHWYQQKAGQPPKLLIYRASELQWGIPARFSGSGSRTDFTLTINPVEADDVATYFCQRSNEVPWTFGGGTKLEIK")
7.06
>>> result("antibody D88 (antibody, V domains shown, also called mAb D88) VH: QVQLVQSGAEVKKPGASVKVSCKAGFNIKDVYMSWVRQAPEQGLEWMGRIDPENGDTKYDPKLQGRVTMTADTSTNTAYMELRSLRSDDTAVYYCARGWEGFAYWGQGTLVTVSS VL: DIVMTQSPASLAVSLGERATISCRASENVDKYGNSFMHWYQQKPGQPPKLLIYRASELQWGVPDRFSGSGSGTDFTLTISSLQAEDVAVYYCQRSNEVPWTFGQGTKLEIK")
8.14
